Target: human PAD4 (Homo sapiens)
Construct: human PAD4 (NM_012387), A2-P663, was PCR amplified; His-SUMO (N, cleaved yes)
Sequence (Q9UM07 2-663): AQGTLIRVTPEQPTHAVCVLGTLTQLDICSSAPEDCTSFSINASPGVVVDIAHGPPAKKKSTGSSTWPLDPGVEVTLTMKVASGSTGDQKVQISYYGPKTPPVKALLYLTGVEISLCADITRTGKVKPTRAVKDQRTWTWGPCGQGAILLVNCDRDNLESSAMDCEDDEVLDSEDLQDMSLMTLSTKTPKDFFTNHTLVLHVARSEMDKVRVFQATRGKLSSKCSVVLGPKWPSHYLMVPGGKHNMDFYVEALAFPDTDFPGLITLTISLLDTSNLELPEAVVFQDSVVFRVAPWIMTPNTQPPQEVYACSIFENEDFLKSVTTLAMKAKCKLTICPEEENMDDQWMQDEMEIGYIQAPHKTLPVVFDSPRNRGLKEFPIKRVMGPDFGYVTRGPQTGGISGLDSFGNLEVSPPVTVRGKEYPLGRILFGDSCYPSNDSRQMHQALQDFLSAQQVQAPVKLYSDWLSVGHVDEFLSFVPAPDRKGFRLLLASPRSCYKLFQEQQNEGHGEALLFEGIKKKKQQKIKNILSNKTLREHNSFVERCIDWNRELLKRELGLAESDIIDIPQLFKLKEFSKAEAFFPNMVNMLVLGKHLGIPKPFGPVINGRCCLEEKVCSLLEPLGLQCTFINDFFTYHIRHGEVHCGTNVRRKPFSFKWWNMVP
Assay: In vitro PAD4 BAEE biochemical assay
Conditions: BAEE substrate 3 mM, 5 nM PAD4, 2 mM calcium chloride; geometric mean of multiple experiments
parameter-measured: pIC50
Remember, pIC50 is on a log scale: it is -log10 of the molar concentration.

Take a look at these entries with their results.
CO[C@@H]1CCN(C(=O)c2cc(F)c3c(c2)nc(-c2cc4ccc5nc4n2CCCCCc2nc(Cl)ccc2C(=O)N[C@@H]5C)n3C)C[C@@H]1N
7.52
COc1cc(C(=O)N2[C@@H]3CC[C@@H](N)[C@H]2CC3)cc2nc(-c3cc4ccc5nc4n3CC(F)(F)CCC[C@@H]3C[C@H]3C(=O)N[C@@H]5C)n(C)c12
7.52

# ---- query compound ----
q: Suppose we examine the compound C[C@H]1NC(=O)[C@H]2C[C@@H]2CC(F)(F)CCCn2c(-c3nc4cc(C(=O)N[C@H]5CNCC[C@@H]5F)c(F)cc4n3C)cc3ccc1nc32 ; what pIC50 value has been reported?
a: 7.15

Every entry's value here was drawn from patent US11976083B2.
